The measured values listed here are drawn from patent US11690828B2.

The following compounds are shown together with reported Kp uu at 1 h values.
test: Rat cerebrospinal fluid (CSF) pharmacokinetic properties; type: in vivo; settings: male, Sprague-Dawley, PO 10 mg/kg, 1 h, unbound CSF / unbound plasma
I'd appreciate a reply containing only the number, no unit.

// below: answered compounds
{"sample smiles": "FC(F)(F)c1n[nH]c(-c2nc(Cc3cncnc3)c3ccccn23)n1", "Kp uu at 1 h": 3.26}
{"sample smiles": "Cc1ncc(Cc2nc(-c3nc(C(F)(F)F)n[nH]3)n3ccccc23)cn1", "Kp uu at 1 h": 0.96}

# context switch: different compound, same Kp uu at 1 h
Would you kindly share the measured Kp uu at 1 h for Fc1ccccc1Cn1nc(-c2nc(C(F)(F)F)n[nH]2)c2cccnc21 ?
3.16
